System: Nrf2 / ARE-dependent luciferase in AREc32 reporter cell line
assay_summary: AREc32 luciferase reporter activation (Nrf2 induction)
Assay type: cell-based, human
setup_conditions: Table 2; ratio to RTA402
Is Relative Avg AREc32 EC2X Relative to RTA402 (fold) at least 0.6 fold? Then rule met. If not, rule not met.

{"columns": ["molecule", "category_label"],
 "data": [
  ["CCc1noc([C@]23CC[C@@H](C)[C@H](C)[C@H]2[C@H]2C(=O)C=C4[C@@]5(C)C=C(C#N)C(=O)C(C)(C)[C@@H]5CC[C@@]4(C)[C@]2(C)CC3)n1 [Compound T4]", "rule met"],
  ["C[C@@H]1[C@H]2[C@H]3C(=O)C=C4[C@@]5(C)C=C(C#N)C(=O)C(C)(C)[C@@H]5CC[C@@]4(C)[C@]3(C)CC[C@@]2(C=O)CC[C@H]1C [Compound T83]", "rule not met"],
  ["C[C@@H]1[C@H]2[C@H]3C(=O)C=C4[C@@]5(C)C=C(C#N)C(=O)C(C)(C)[C@@H]5CC[C@@]4(C)[C@]3(C)CC[C@@]2(CC(=O)NC2CC2)CC[C@H]1C [Compound T92]", "rule not met"],
  ["C[C@@H]1[C@H]2[C@H]3C(=O)C=C4[C@@]5(C)C=C(C#N)C(=O)C(C)(C)[C@@H]5CC[C@@]4(C)[C@]3(C)CC[C@@]2(c2nc(CF)no2)CC[C@H]1C [Compound T11]", "rule met"]
]}

Quick check, Relative Avg AREc32 EC2X Relative to RTA402 (fold) >= 0.6 fold? C[C@@H]1[C@H]2[C@H]3C(=O)C=C4[C@@]5(C)C=C(C#N)C(=O)C(C)(C)[C@@H]5CC[C@@]4(C)[C@]3(C)CC[C@@]2(CNS(=O)(=O)C2CC2)CC[C@H]1C [Compound T33]
rule met

Quick check, Relative Avg AREc32 EC2X Relative to RTA402 (fold) >= 0.6 fold? C[C@@H]1[C@H]2[C@H]3C(=O)C=C4[C@@]5(C)C=C(C#N)C(=O)C(C)(C)[C@@H]5CC[C@@]4(C)[C@]3(C)CC[C@@]2(n2cccn2)CC[C@H]1C [Compound T64]
rule met

Quick check, Relative Avg AREc32 EC2X Relative to RTA402 (fold) >= 0.6 fold? C[C@@H]1[C@H]2[C@H]3C(=O)C=C4[C@@]5(C)C=C(C#N)C(=O)C(C)(C)[C@@H]5CC[C@@]4(C)[C@]3(C)CC[C@@]2(CCC(=O)NC2CC2)CC[C@H]1C [Compound T81]
rule not met

====

Test system: Nrf2 / ARE-dependent luciferase in AREc32 reporter cell line
assay_summary: AREc32 luciferase reporter activation (Nrf2 induction)
Type: cell-based, human
setup_conditions: Homo sapiens, Arec32; Table 3; oleanolic acid derivative analogs; read-out: Avg ARE EC-2X
Is EC (2-fold) at least 0.02 µM? Then TRUE. If not, FALSE.

A selection of reference data follows.
{"columns": ["compound", "category_label"],
 "data": [
  ["CCc1noc([C@]23CCC(C)(C)C[C@H]2[C@H]2C(=O)C=C4[C@@]5(C)C=C(C#N)C(=O)C(C)(C)[C@@H]5CC[C@@]4(C)[C@]2(C)CC3)n1 [CC4, reference compound]", "TRUE"],
  ["CC1(C)CC[C@]2(CNCCO)CC[C@]3(C)[C@H](C(=O)C=C4[C@@]5(C)C=C(C#N)C(=O)C(C)(C)[C@@H]5CC[C@]43C)[C@@H]2C1 [CC40, reference compound]", "TRUE"],
  ["CC1(C)CC[C@]2(CN3CCC3=O)CC[C@]3(C)[C@H](C(=O)C=C4[C@@]5(C)C=C(C#N)C(=O)C(C)(C)[C@@H]5CC[C@]43C)[C@@H]2C1 [CC14, reference compound]", "FALSE"],
  ["CC1(C)CC[C@]2(n3ccnc3)CC[C@]3(C)[C@H](C(=O)C=C4[C@@]5(C)C=C(C#N)C(=O)C(C)(C)[C@@H]5CC[C@]43C)[C@@H]2C1 [CC62, reference compound]", "TRUE"]
]}

# next compound below
Quick check, EC (2-fold) >= 0.02 µM? CC1(C)CC[C@]2(Cn3ccnn3)CC[C@]3(C)[C@H](C(=O)C=C4[C@@]5(C)C=C(C#N)C(=O)C(C)(C)[C@@H]5CC[C@]43C)[C@@H]2C1 [CC50, reference compound]
FALSE
